# test: xn = mol fraction of the nth substance listed
# runConditions: 298.15 K; 101.3 kPa; Liquid; Concentric cylinders viscometry; x1 = 0.7
In this section, each of the compounds is paired with its reported viscosity.
quantity: viscosity (mPa·s)

In [3]: df
Out[3]:
                                   compound   quantity  unitsymbol  measuredvalue
0  CCCCCCC(=O)[O-].CC[NH+](C(C)C)C(C)C [N-ethyl-N-isopropylpropan-2-aminium heptanoate] + O  viscosity       mPa·s          22.67
1  CCCCCCCC(=O)[O-].CC[NH+](C(C)C)C(C)C [N-ethyl-N-isopropylpropan-2-aminium octanoate] + CC#N  viscosity       mPa·s             11
2  CCCCCCCC(=O)[O-].CC[NH+](C(C)C)C(C)C [N-ethyl-N-isopropylpropan-2-aminium octanoate] + O  viscosity       mPa·s          21.29
3  CCCCCCC(=O)[O-].CC[NH+](C(C)C)C(C)C [N-ethyl-N-isopropylpropan-2-aminium heptanoate] + CC#N  viscosity       mPa·s              9

----------
# test: xn = mol fraction of the nth substance listed
# runConditions: 298.15 K; 101.3 kPa; Liquid; Concentric cylinders viscometry; x1 = 0.9
In this section, each of the compounds is paired with its reported viscosity.
quantity: viscosity (mPa·s)

In [3]: df
Out[3]:
                                   compound  measuredvalue
0  CCCCCCCC(=O)[O-].CC[NH+](C(C)C)C(C)C [N-ethyl-N-isopropylpropan-2-aminium octanoate] + CC#N          14.82
1  CCCCCCC(=O)[O-].CC[NH+](C(C)C)C(C)C [N-ethyl-N-isopropylpropan-2-aminium heptanoate] + O          14.44
2  CCCCCCC(=O)[O-].CC[NH+](C(C)C)C(C)C [N-ethyl-N-isopropylpropan-2-aminium heptanoate] + CC#N           13.5
3  CCCCCCCC(=O)[O-].CC[NH+](C(C)C)C(C)C [N-ethyl-N-isopropylpropan-2-aminium octanoate] + O          16.65
